A collection of compounds and their measured Plasmodiophora brassicae Control value
test system: Clubroot (Plasmodiophora brassicae); test: Control test on clubroot of cabbage, soil treatment, control value after 60 days; type: in vivo; conditions: 100 gai/10a; 60 days after treatment
Number only, no unit.

Q: Entry Cc1cc(C(F)(C(F)(F)F)C(F)(F)F)cc(C)c1NC(=O)c1cccc(N(C)C(=O)c2cccnc2Cl)c1F [Compound 1245] needs its Plasmodiophora brassicae Control value filled in; supply it.
A: 6

Q: Item O=C(Nc1cccc(C(=O)Nc2c(Br)cc(C(F)(C(F)(F)F)C(F)(F)F)cc2SC(F)(F)F)c1)c1ccccc1 [Compound 210] : provide Plasmodiophora brassicae Control value
A: 0

Q: // fetch Plasmodiophora brassicae Control value given entry Cc1cc(C(F)(C(F)(F)F)C(F)(F)F)cc(C)c1NC(=O)c1cccc(N(C)C(=O)c2ccccc2)c1F [Compound 1208]
A: 9

Q: Read off the recorded Plasmodiophora brassicae Control value for CCCc1cc(C(F)(C(F)(F)F)C(F)(F)F)cc(Br)c1NC(=O)c1cccc(NC(=O)c2ccccc2)c1 [Compound 178]
A: 5

Here is another compound to look at.
Q: Respond only with Plasmodiophora brassicae Control value recorded for Cc1cc(C(F)(C(F)(F)F)C(F)(F)F)cc(C)c1NC(=O)c1cccc(NC(=O)c2ccccc2)c1F [Compound No. 601]
A: 0
